pKi: −log10 of the molar value.
Compiled record: pKi values for Carbonic anhydrase 1 (Homo sapiens, UniProt P00915) across several sources.
# if value of pKi reaches 6, tag criterion met; if it stays below, tag criterion not met

INSERT INTO assay_data (molecule, classlabel) VALUES
  ('CC(=O)Nc1ccc2oc(=O)c3c(C)nn(-c4ccccc4)c3c2c1', 'criterion not met'),
  ('COC(=O)CCNS(=O)(=O)NC(C)c1ccccc1 (stereo not given)', 'criterion not met'),
  ('CCOc1ccc(S(=O)(=O)N2CCN(C)CC2)cc1-c1nnc2c(n1)c(C)nn2-c1ccc(S(=O)(=O)N2CCN(C)CC2)c(Cl)c1', 'criterion met'),
  ('Cn1nc(S(N)(=O)=O)s/c1=N\C(=O)CN(CCN(CCN(CC(=O)O)CC(=O)/N=c1/sc(S(N)(=O)=O)nn1C)CC(=O)O)CC(=O)O', 'criterion met'),
  ('O=C(Nc1cccc2c1C(=O)NS2(=O)=O)c1ccccc1', 'criterion not met'),
  ('NS(=O)(=O)c1ccc(COC(=O)CN(CCN(CCN(CC(=O)O)CC(=O)OCc2ccc(S(N)(=O)=O)cc2)CC(=O)O)CC(=O)O)cc1', 'criterion met'),
  ('NS(=O)(=O)c1ccccc1N1C(=O)c2cccc([N+](=O)[O-])c2C1=O', 'criterion not met'),
  ('NS(=O)(=O)c1cccc(NS(=O)(=O)c2ccc(NSC(=S)N3CCOCC3)cc2)c1', 'criterion met'),
  ('O=C(CCC(=O)Nc1ccc2c(c1)B(O)OC2)Nc1ccc2c(c1)B(O)OC2', 'criterion not met'),
  ('CCCCCN(CCCCC)CCC(=O)N(CCc1ccc(S(N)(=O)=O)cc1)Cc1ccccc1', 'criterion met'),
  ('Nc1c(Br)cc(S(=O)(=O)Nc2nnc(S(N)(=O)=O)s2)cc1Br', 'criterion met'),
  ('O=C1C=C(c2ccccc2)S(=O)(=O)N1', 'criterion not met'),
  ('O=C(CNS(=O)(=O)C(F)(F)C(F)(F)C(F)(F)C(F)(F)F)NO', 'criterion met'),
  ('C[C@H](CCC(=O)Nc1nnc(S(N)(=O)=O)s1)[C@H]1CC[C@H]2[C@@H]3[C@@H](O)C[C@@H]4C[C@H](O)CC[C@]4(C)[C@H]3CC[C@]12C', 'criterion met'),
  ('NS(=O)(=O)c1cc(-c2nc(-c3ccccc3)no2)cs1', 'criterion met'),
  ('O=C(N/C=C/C=C/c1ccc2c(c1)OCO2)Nc1ccc(S(=O)(=O)Nc2nccs2)cc1', 'criterion not met'),
  ('NS(=O)(=O)c1ccc(CNc2nc(Cl)nc(NCCC(=O)O)n2)cc1', 'criterion not met'),
  ('CC1(C)OB(c2ccc(NC(=S)Nc3cccc(S(N)(=O)=O)c3)cc2)OC1(C)C', 'criterion met'),
  ('O=C(CN1C(=O)c2ccccc2S1(=O)=O)c1ccccc1', 'criterion not met'),
  ('CC(C)(C)OC(=O)N(CCCN(CCNC(=O)C(F)(F)F)C(=O)OC(C)(C)C)CCNC(=O)C(F)(F)F', 'criterion not met'),
  ('NS(=O)(=O)c1ccc(NC(=O)Cc2cccs2)cc1', 'criterion met'),
  ('COc1ccc(C2CC(c3ccc(OS(N)(=O)=O)cc3)=NN2C(C)=O)cc1 (stereo not given)', 'criterion not met');
